- Test system: pigweed
- methodDescription: Test B pre/postemergence pigweed
- Assay type: in vivo, Amaranthus retroflexus
- measurementParameters: Postemergence, Rate 62 g/ha; scale 0 to 10, 0 is no effect, 10 is complete control
- Experimental: […] At the same time, these crop and weed species were also treated with postemergence applications of test chemicals formulated in the same manner. […] Treated plants and controls were maintained in a greenhouse for twelve to sixteen days, after which all species were compared to controls and visually evaluated. […]
Exercise: state measured Plant response rating, Redroot pigweed for each of the molecules provided.
Numbers only.

Example entries and their recorded answers appear below.
CC(C)N(C(=O)n1oc(=O)n(CCCCCl)c1=O)c1ccc(Cl)cc1: 2
CC(C)N(C(=O)n1oc(=O)n(C[C@H](C)Cl)c1=O)c1ccc(F)cc1F: 5
CCOC(CC)n1c(=O)on(C(=O)N(c2ccccc2)C(C)C)c1=O (stereo not drawn): 0
C=C(Cl)Cn1c(=O)on(C(=O)N(c2ccccc2)C(C)C)c1=O: 3
CC(CBr)Cn1c(=O)on(C(=O)N(c2ccc(F)cc2)C(C)C)c1=O (stereo not drawn): 0

Consider the record given below.
[ask] Give the reported Plant response rating, Redroot pigweed for CC(C)N(C(=O)n1oc(=O)n(CC(=O)C2CCC2)c1=O)c1ccc(F)cc1F (system: pigweed).
[reply] 0
